- System: SNB-19 CNS
- assay_notes: NCI-60 one-dose screen, 48 h
- experimental_context: 10 µM unless noted
About 83,000 compounds went through this panel and 20% of them were active in at least one assay; those are over-represented in the sample as a whole. The source made the active and inactive calls. Rule for the calls: active = growth percent below 10; inactive = the rest.
Classes used: label 1 = active, label 0 = inactive

INSERT INTO measurements (compound, label_value) VALUES
  ('O=c1ccn(Cc2cn(-c3c4ccccc4nc4ccccc34)nn2)c(=O)[nH]1', 'label 0'),
  ('c1ccc(OCc2nnc(-c3ccc(Oc4ccccc4)cc3)o2)cc1', 'label 0'),
  ('CCOc1c(B(O)O)cccc1-c1nc2ccc3[nH]ncc3c2c2c1CCCC2', 'label 0'),
  ('CCc1cccc2c3c(sc12)C(c1ccc(Cl)cc1)C(C#N)=C(N)O3 (stereo not given)', 'label 0'),
  ('CCOC(=O)CC1C(COC(=O)NC)OC(n2cnc3c(NC(=O)Nc4ccccc4)ncnc32)C1O[Si](C)(C)C(C)(C)C (stereo not given)', 'label 0'),
  ('CC[C@H](C)C(=O)O[C@H]1CCC=C2C=C[C@H](C)[C@H](CC[C@@H]3CC=CC(=O)O3)[C@H]21', 'label 0'),
  ('COc1ccc(-c2[nH]c3ccc(OC)cc3c2/C=C(\C#N)S(=O)(=O)c2ccccc2)cc1', 'label 0'),
  ('O=c1cc(SCc2ccccc2)nc[nH]1', 'label 0'),
  ('Nc1nc2ccccc2c2c(=O)c3cc(F)ccc3sc12', 'label 0'),
  ('COC1=C(C)C(=O)c2c(c(CCCl)c3n2CCC3O)C1=O (stereo not given)', 'label 1');

###

- Test system: PC-3 prostate
- assay_notes: NCI-60 one-dose screen, 48 h (100 = growth as untreated, 0 = no growth, -100 = all killed)
- experimental_context: 10 µM unless noted
About 83,000 compounds went through this panel and 20% of them were active in at least one assay; those are over-represented in the sample as a whole.
Hi all, reminder that labels come from growth, split as class 0 = under 60%, class 1 = from 60% up to 90%, class 2 = 90% and over

INSERT INTO results (compound, label_value) VALUES
  ('CCCCCCCNC(=O)CCCNc1ncnc2c1ncn2-c1cccc(C(C)O)c1 (stereo not given)', 'class 1'),
  ('O=c1ccc(N=Nc2ccccc2)ccc1Cl', 'class 0'),
  ('CCCCC1CCCC12NC(=O)NC2=O (stereo not given)', 'class 2'),
  ('Cc1c(C(=O)NCCCc2ccccc2)sc2ncc(-c3ccc(Br)cc3)n12', 'class 2'),
  ('O=c1c2cc(F)ccc2sc2c(NCCO)nc3ccccc3c12', 'class 2'),
  ('O=C(Cc1ccc(F)c(Cl)c1)Nc1cc(C2(C(F)(F)F)CC2)nn1Cc1ccccc1', 'class 1'),
  ('c1ccc(-c2nc3sc(-c4ccccc4)cn3n2)cc1', 'class 1'),
  ('Cc1c(C(=O)N[C@@H](Cc2ccccc2)C(=O)C(=O)NCc2ccc(F)cc2)[nH]c2ccccc2c1=O', 'class 1'),
  ('Cc1ccc(-c2nc(N3CCN(C(=O)Nc4ccc(Cl)c(C(F)(F)F)c4)CC3)c3ccccc3n2)cc1', 'class 0'),
  ('Cc1[nH]c(C(=O)Nc2ccc(C(=O)N3CCNCC3)cc2OC(C)C)c(Cl)c1Cl', 'class 1'),
  ('O=c1c2cc(F)ccc2sc2c(N3CCCCC3)nc3ccccc3c12', 'class 2'),
  ('O=C(Nc1ccc(Cl)cc1F)c1cc(Cl)ccc1O', 'class 0'),
  ('COc1ccc(/C=C/c2c(C(=O)/C=C/c3ccc(C(F)(F)F)cc3)c(C)nc3ccccc23)cc1', 'class 0'),
  ('Cc1ccc(-c2nc(N3CCN(CC(=O)Nc4ccc(Cl)cc4)CC3)c3ccccc3n2)cc1', 'class 1'),
  ('CCCCCCn1c(-c2ccc(C(=O)O/N=C(\N)c3ccc(OC)cc3)cc2)nc(-c2ccccc2)c1-c1ccccc1', 'class 0'),
  ('COc1cc(C(=O)N/N=C/c2cc3cc(OCc4ccccc4)ccc3nc2OC)cc(OC)c1OC', 'class 1'),
  ('COc1ccc(C(=O)COC(=O)[C@H](C[Se][Se]C[C@H](NC(=O)c2ccc(Br)cc2F)C(=O)OCC(=O)c2ccc(OC)cc2)NC(=O)c2ccc(Br)cc2F)cc1', 'class 0'),
  ('COc1ccc2sc3c(NCCCNCCO)nc4ccccc4c3c(=O)c2c1', 'class 1'),
  ('CN(C)CC#Cc1ccc2ncc(C#N)c(Nc3ccc(F)c(Cl)c3)c2c1', 'class 0');
